MEASURED PROPERTY: glass transition temperature
The answer consists of two parts: a number and, after it, its unit.

COMPOUND	RESULT
*Oc1ccc(OC(=O)c2ccc(OCCCCCCCCOc3ccc(C(*)=O)cc3)cc2)cc1C(=O)CC (repeat unit)	70.00 °C
*C(=O)c1ccc2c(c1)C(=O)N(c1ccc(OCC(C)(C)COc3ccc(N4C(=O)c5ccc(*)cc5C4=O)cc3)cc1)C2=O (repeat unit)	234.00 °C
*C(=O)c1ccc2c(c1)C(=O)N(c1ccc(Cc3ccc(Cc4ccc(Cc5ccc(N6C(=O)c7ccc(*)cc7C6=O)cc5)cc4)cc3)cc1)C2=O (repeat unit)	302.00 °C
*c1nnc(-c2sc(-c3nnc(-c4cc(OCCCCCCCC)c(*)cc4OCCCCCCCC)o3)cc2CCCCCCCC)o1 (repeat unit)	124.30 °C
*c1cccc(Cc2cccc(N3C(=O)c4ccc([Si](C)(C)c5ccc6c(c5)C(=O)N(*)C6=O)cc4C3=O)c2)c1 (repeat unit)	238.00 °C
*CC(O)CN(*)c1cc(C)cc(C)c1 (repeat unit)	80.00 °C
*c1cc(SCCCCCC)c(*)s1 (repeat unit)	32.00 °C
*c1ccc(Oc2ccc(C(=O)c3ccc(C(=O)c4ccc(Oc5ccc(N6C(=O)c7ccc(-c8ccc9c(c8)C(=O)N(*)C9=O)cc7C6=O)cc5)cc4)cc3)cc2)cc1 (repeat unit)	245.00 °C
*CCCCCCN1C(=O)c2ccc(C(=O)Nc3ccc(S(=O)(=O)c4ccc(NC(=O)c5ccc6c(c5)C(=O)N(*)C6=O)cc4)cc3)cc2C1=O (repeat unit)	198.00 °C
*CC(*)c1c(F)c(F)c(P(=O)(O)O)c(F)c1F (repeat unit)	330.00 °C

Continue with the compound presented below.
Reported glass transition temperature for *CC(*)C(=O)OCCCSC (repeat unit) : what is it?
-65.00 °C

----------
Cut-off 200 °C on glass transition temperature, inclusive. At or above means TRUE; below means FALSE.

API: above_or_equal(metric=glass transition temperature, cutoff=200 °C) for item *OC1C(C)(C)C(OC(*)=O)C1(C)C (repeat unit)
FALSE

----------
In this section, each of the compounds is paired with its reported glass transition temperature.
Entry rule: numbers only, all in °C.

Some solved cases for reference:
COMPOUND	glass transition temperature [°C]
*C(=O)Oc1ccc(OCCCCCCCCCCCCOc2ccc(OC(=O)c3ccc4c(c3)C(=O)N(c3ccc(S(=O)(=O)c5ccc(N6C(=O)c7ccc(*)cc7C6=O)cc5)cc3)C4=O)cc2)cc1 (repeat unit)	140.00
*CCOC(=O)c1ccc(-c2ccc(C(=O)O*)cc2)cc1 (repeat unit)	40.00

Continue with the compound presented below.
Reported glass transition temperature for *Oc1ccc(C(C)(C)c2cc(Cl)c(OC(*)=O)c(Cl)c2)cc1 (repeat unit) : what is it?
186.00

----------
In this section, each of the compounds is paired with its reported glass transition temperature.

COMPOUND	glass transition temperature
*CC(*)(C)C(=O)OC1CC(C)CC(C)(C)C1 (repeat unit)	125.00 °C

Reported glass transition temperature for *CCOCCOCCN1C(=O)c2ccc(C(=O)Oc3ccc(C(C)(C)c4ccc(OC(=O)c5ccc6c(c5)C(=O)N(*)C6=O)cc4)cc3)cc2C1=O (repeat unit) : what is it?
118.00 °C

Now this one: *C(C)C(*)C(=O)OC12CC3CC(C)(CC(C)(C3)C1)C2 (repeat unit)
194.50 °C

Now this one: *Sc1ccc2c(c1)Sc1ccc(*)cc1S2 (repeat unit)
209.90 °C

Now this one: *c1cccc(P(C)(=O)c2cccc(N3C(=O)c4ccc(NC(=O)OCCOc5ccc(P(=O)(c6ccccc6)c6ccc(OCCOC(=O)Nc7ccc8c(c7)C(=O)N(*)C8=O)cc6)cc5)cc4C3=O)c2)c1 (repeat unit)
201.00 °C

Now this one: *CCC(C)O[Si](C)(C)O* (repeat unit)
-88.00 °C

Now this one: *OC1C(CO)OC(*)C(N)C1O (repeat unit)
194.00 °C

Where do these numbers come from? They come from the PolyMetriX glass transition set.
